Target: Vasopressin V2 receptor (Rattus norvegicus)
Sequence (Q00788 whole entry): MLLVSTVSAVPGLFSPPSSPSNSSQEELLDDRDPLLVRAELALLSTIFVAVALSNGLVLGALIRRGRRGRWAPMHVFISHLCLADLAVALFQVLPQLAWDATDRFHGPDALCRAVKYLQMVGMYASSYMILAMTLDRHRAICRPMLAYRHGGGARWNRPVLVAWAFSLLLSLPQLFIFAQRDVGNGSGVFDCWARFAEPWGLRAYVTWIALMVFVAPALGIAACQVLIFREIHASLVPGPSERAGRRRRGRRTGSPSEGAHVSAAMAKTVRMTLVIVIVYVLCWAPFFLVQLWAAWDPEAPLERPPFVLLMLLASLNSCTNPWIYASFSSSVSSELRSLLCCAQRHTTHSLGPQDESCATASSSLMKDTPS
Measured Quantity: Ki

Item Cn1cc(C(=O)OCC2CCN(CCNS(C)(=O)=O)CC2)c2ccccc21 [GR 113808] has what recorded Ki?
> 10 µM

----------
Target: Galanin peptides (Rattus norvegicus)
Sequence (P10683 whole entry): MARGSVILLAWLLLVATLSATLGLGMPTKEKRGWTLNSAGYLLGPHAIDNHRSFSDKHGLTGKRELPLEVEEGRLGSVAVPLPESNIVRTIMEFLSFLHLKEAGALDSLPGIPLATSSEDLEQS
Measured Quantity: Ki

Short answer please: Ki, Galanin peptides (Rattus norvegicus), entry Cn1cc(C(=O)OCC2CCN(CCNS(C)(=O)=O)CC2)c2ccccc21
> 10 µM
